# measured on: c-Met kinase domain recombinant protein (Homo sapiens, UniProt P08581)
# Construct: 50 μL diluted solution of c-Met kinase domain recombinant protein in reaction buffer was added to initiate the reaction
# Sequence (P08581 1078-1345 limits assumed): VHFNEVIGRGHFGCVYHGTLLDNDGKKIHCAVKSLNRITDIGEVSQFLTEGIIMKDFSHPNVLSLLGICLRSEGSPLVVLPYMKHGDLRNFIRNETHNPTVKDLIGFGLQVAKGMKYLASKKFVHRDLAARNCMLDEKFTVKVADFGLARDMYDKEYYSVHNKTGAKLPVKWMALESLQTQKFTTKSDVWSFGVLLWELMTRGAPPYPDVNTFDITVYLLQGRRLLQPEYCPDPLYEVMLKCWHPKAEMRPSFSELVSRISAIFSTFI
# assay comment: biochemical
# applied conditions: read-out: Average inhibition rate at 10 μM (%)
assay endpoint: inhibition at 10 µM (%)

compound | measured on | result units | inhibition at 10 µM
Cn1cc(-c2cnc3cnn(S(=O)(=O)c4ccccc4)c3c2)cn1 [Compound 4] | c-Met kinase domain recombinant protein (Homo sapiens, UniProt P08581) | % | 44.1

A. Cn1cc(-c2cnc3cnn(S(=O)(=O)c4cnc5ccc(-c6ccccc6C(F)(F)F)cn45)c3c2)cn1 [Example 84]
B. Cn1cc(-c2cnc3cnn(S(=O)(=O)c4ccc(C(F)(F)F)cc4)c3c2)cn1 [Compound 15]
Exercise: Would you let me know which has the greater inhibition at 10 µM value, A or B ? Reply with the label of the item you choose.
Key: A

---

# measured on: c-Met kinase domain recombinant protein (Homo sapiens, UniProt P08581)
# Construct: 50 μL diluted solution of c-Met kinase domain recombinant protein in reaction buffer was added to initiate the reaction
# assay comment: biochemical
# applied conditions: read-out: Average inhibition rate at 1 μM (%)
assay endpoint: inhibition at 1 µM (%)

1. Nc1ccc2ncc(S(=O)(=O)n3ncc4ncc(-c5ccccc5)cc43)n2c1 [Example 117]
2. Nc1ccc2ncc(S(=O)(=O)n3ncc4ncc(-c5ccc(F)cc5)cc43)n2c1 [Example 118]
3. Cn1cc(-c2cnc3[nH]nc(S(=O)(=O)c4ccccc4[N+](=O)[O-])c3c2)cn1 [Compound 2]
Exercise: Let's sort these by inhibition at 1 µM, smallest first. Go ahead? Output the labels ranked as instructed.
Key: 3, 1, 2

A. CN1CCN(C(=O)c2ccc(-c3cnc4cnn(S(=O)(=O)c5cnc6ccc(-c7cnn(C)c7)cn56)c4c3)cc2)CC1 [Example 142]
B. O=S(=O)(c1cnc2ccccn12)n1ncc2ncc(-c3cnn(C4CCN(C5CCCC5)CC4)c3)cc21 [Example 60]
Exercise: Please indicate which has the smaller reported inhibition at 1 µM: A , or B . Answer format: the label of the selected item.
Key: B

A. O=S(=O)(c1cnc2ccccn12)n1ncc2ncc(-c3ccsc3)cc21 [Example 29]
B. O=[N+]([O-])c1ccc2ncc(S(=O)(=O)n3ncc4ncc(-c5ccc(C(F)(F)F)cc5)cc43)n2c1 [Example 115]
Exercise: Parameter metric = inhibition at 1 µM. Return the lower-valued option from A and B . Lab log: write the label of the selected item as the result.
Key: A

---

# measured on: c-Met kinase domain recombinant protein (Homo sapiens)
# Construct: 50 μL diluted solution of c-Met kinase domain recombinant protein in reaction buffer was added to initiate the reaction
# assay comment: biochemical
# applied conditions: read-out: Average inhibition rate at 0.1 μM (%)
assay endpoint: inhibition at 0.1 µM (%)

smiles record | inhibition at 0.1 µM (%)
CC(C)(C)OC(=O)N1CCC(n2cc(-c3cnc4cnn(S(=O)(=O)c5cnc6ccc(C(F)(F)F)cn56)c4c3)cn2)CC1 | 59
Cn1cc(-c2cnc3cnn(S(=O)(=O)c4cnc5cccnn45)c3c2)cn1 | 59
Cn1cc(-c2cnc3cnn(S(=O)(=O)c4cnc5ccc(-c6ccc(F)cc6)cn45)c3c2)cn1 | 72.9
O=S(=O)(c1cnc2ccccn12)n1ncc2ncc(-c3cnn(C4CCN(C5CCCC5)CC4)c3)cc21 | 50.1

A. COc1ccc2ncc(S(=O)(=O)n3ncc4ncc(-c5ccc(N6CCOCC6)cc5)cc43)n2c1
B. Cn1cc(-c2cnc3cnn(S(=O)(=O)c4ccccc4C(F)(F)F)c3c2)cn1
Exercise: Which record shows the lower inhibition at 0.1 µM: the first, A , or the second, B ? Your choice should be expressed through its label.
Key: B
(B: 39.9%, A: 94.4%)

I. CC(C)N1CCC(n2cc(-c3cnc4cnn(S(=O)(=O)c5cnc6ccc(-c7cnn(C)c7)cn56)c4c3)cn2)CC1
II. CC(=O)c1ccc(-c2cnc3cnn(S(=O)(=O)c4cnc5ccccn45)c3c2)cc1
III. COc1ccc(OC)c(-c2cnc3cnn(S(=O)(=O)c4cnc5ccccn45)c3c2)c1
Exercise: Returns the items ordered by inhibition at 0.1 µM, from maximum to minimum. Dear reader, please state the labels in the requested order.
Key: I, II, III

---

# measured on: c-Met kinase domain recombinant protein (Homo sapiens, UniProt P08581)
# Construct: 50 μL diluted solution of c-Met kinase domain recombinant protein in reaction buffer was added to initiate the reaction
# assay comment: biochemical
# applied conditions: read-out: Average inhibition rate at 0.1 μM (%)
assay endpoint: inhibition at 0.1 µM (%)

Examples from the recorded data:
smiles record | measured on | result units | inhibition at 0.1 µM
CC(C)(C)OC(=O)N1CCC(n2cc(-c3cnc4cnn(S(=O)(=O)c5cnc6ccc(Cl)cn56)c4c3)cn2)CC1 | c-Met kinase domain recombinant protein (Homo sapiens, UniProt P08581) | % | 63.1
CCOC(=O)c1cnc2cnn(S(=O)(=O)c3cnc4ccc(Br)cn34)c2c1 | c-Met kinase domain recombinant protein (Homo sapiens, UniProt P08581) | % | 16.1
O=S(=O)(c1cnc2ccccn12)n1ncc2ncc(-c3ccc(N4CCOCC4)cc3)cc21 | c-Met kinase domain recombinant protein (Homo sapiens, UniProt P08581) | % | 58.2
Cn1cc(-c2cnc3cnn(S(=O)(=O)c4cnc5ccc(-c6ccsc6)cn45)c3c2)cn1 | c-Met kinase domain recombinant protein (Homo sapiens, UniProt P08581) | % | 70.1

1. O=S(=O)(c1cnc2ccccn12)n1ncc2ncc(-c3ccc4c(c3)OCCO4)cc21
2. Cn1cc(-c2ccc3ncc(S(=O)(=O)n4ncc5ncc(-c6ccccc6)cc54)n3c2)cn1
Exercise: API: POST /compare with 1 and 2 ; response names the item with higher inhibition at 0.1 µM. Write down the label attached to your selection.
Key: 2
(2: 92.1%, 1: 45.6%)

I. Nc1ccc2ncc(S(=O)(=O)n3ncc4ncc(-c5ccc(F)cc5)cc43)n2c1
II. Cn1cc(-c2cnc3cnn(S(=O)(=O)c4cccc(C(F)(F)F)c4)c3c2)cn1
Exercise: Identify the entry with the smaller inhibition at 0.1 µM: I or II . Give the chosen item's label as your response.
Key: II
(II: 25.2%, I: 62.7%)

a. COc1ccccc1-c1ccc2ncc(S(=O)(=O)n3ncc4ncc(-c5cnn(C)c5)cc43)n2c1
b. CCN1CCC(n2cc(-c3cnc4cnn(S(=O)(=O)c5cnc6ccc(-c7cnn(C)c7)cn56)c4c3)cn2)CC1
Exercise: Returns the identifier with the smallest measured inhibition at 0.1 µM among a and b . Kindly state the label of the option you pick.
Key: a

a. Cn1cc(-c2cnc3cnn(S(=O)(=O)c4cccc5nonc45)c3c2)cn1
b. COc1ccc2cc(-c3cnc4cnn(S(=O)(=O)c5cnc6ccc(OC)cn56)c4c3)ccc2c1
Exercise: API: POST /compare with a and b ; response names the item with higher inhibition at 0.1 µM. Pick one and reply with its label.
Key: b
(b: 87%, a: 54.9%)

P. O=S(=O)(c1cnc2ccccn12)n1ncc2ncc(-c3ccoc3)cc21
Q. CC(C)c1c(-c2cnn(C)c2)cnc2cnn(S(=O)(=O)c3cnc4ccc(-c5cnn(C)c5)cn34)c12
Exercise: Between the entries labelled P and Q , which has a larger inhibition at 0.1 µM value on record? In your reply, give the label of the chosen option.
Key: Q

---

// reported inhibition at 1 µM for each item listed
# Test system: BaF3/TPR-Met cell
# assay comment: Test III: growth inhibition of engineered BaF3/TPR-Met cells (MTT)
# Format: cell-based
# applied conditions: Mus musculus, read-out: Cell proliferation inhibition rate at 1 μM (%); BaF3/TPR-Met, 1 μM, 72 hours
Entry rule: numbers only, all in %.

Completed entries (count: 3):
smiles record | result units | measured
O=C(C1CCCCC1)N1CCC(n2cc(-c3cnc4cnn(S(=O)(=O)c5cnc6ccccn56)c4c3)cn2)CC1 | % | 89.5
CC(=O)N1CCC(n2cc(-c3cnc4cnn(S(=O)(=O)c5cnc6ccccn56)c4c3)cn2)CC1 | % | 89.6
CC(C)(C)OC(=O)N1CCC(n2cc(-c3cnc4cnn(S(=O)(=O)c5cnn6cccnc56)c4c3)cn2)CC1 | % | 68

Exercise: Bench note: what inhibition at 1 µM did CC(C)(C)OC(=O)N1CCC(n2cc(-c3cnc4cnn(S(=O)(=O)c5cnc6ccc(Cl)nn56)c4c3)cn2)CC1 show?
Key: 91.7

---

# measured on: c-Met kinase domain recombinant protein (Homo sapiens, UniProt P08581)
# Construct: 50 μL diluted solution of c-Met kinase domain recombinant protein in reaction buffer was added to initiate the reaction
# assay comment: biochemical
# applied conditions: read-out: Average inhibition rate at 1 μM (%)
assay endpoint: inhibition at 1 µM (%)

P. CCOC(=O)c1cnc2cnn(S(=O)(=O)c3cnc4ccc(Br)cn34)c2c1
Q. CC(C)N1CCC(n2cc(-c3cnc4cnn(S(=O)(=O)c5cnc6ccc(C(F)(F)F)cn56)c4c3)cn2)CC1
Exercise: compare P and Q ; which one has the greater inhibition at 1 µM? Write down the label of the entry you select.
Key: P
(P: 90.8%, Q: 57.7%)

I. Cc1ccc(-c2ccc3ncc(S(=O)(=O)n4ncc5ncc(-c6cnn(C)c6)cc54)n3c2)cc1F
II. Cn1cc(-c2cnc3cnn(S(=O)(=O)c4cnc5ccc(-c6cn[nH]c6)cn45)c3c2)cn1
III. Cn1cc(-c2cnc3cnn(S(=O)(=O)c4cnc5ccc(-c6ccccc6C(F)(F)F)cn45)c3c2)cn1
Exercise: // smallest inhibition at 1 µM at index 0, largest at the end To answer, arrange all of the labels according to the requested order.
Key: III, I, II
